Recorded paired-competition value (Octet signal of the second antibody per paragraph 256), one value per entry.
- Measurement target: recombinant human soluble γ2 δ3TCR-FC (wild type) (human) (UniProt B7Z8K6)
- Experiment summary: Octet, γ2δ3TCR-hFc captured on anti-human Fc biosensor; row antibody δ3-31 taken as first (saturating), column antibody as second; 5 µg/mL each; also: unit not given here
Answer with a number only.

As a guide, the following entries are already answered.
[
  {
    "Binder": "δ3-23 (antibody, V domains shown) VH: EVQLQQSGAELVKPGASVKLSCTASGFNIRDTYMHWVKQRPEQGLEWIGRIDPANGNTKYDPKFRGKATITADTSSNTAYLQLSSLTSEGTAVYYCSEGIYFDYWGQGTTLTVSS VL: DILLTQSPAILSVSPGERVSFSCRASQNIGTIIHWYQQRANGSPRLLIKYASESISGIPSRFSGSGSGTDFTLSINSVESEDIADYYCQQSNSWPYTFGGGTKLEIKR",
    "Quantitative readout": 0.48
  },
  {
    "Binder": "δ3-08 (antibody, V domains shown) VH: EEKLEESGGGLVQPGGSMKLSCVASGFIFSIYWMNWVRQSPEKGLEWVGQIRLKSDNYATHYAESVKGRFTISRDDSKSSVYLQMNNLRAEDTGIYYCMYYGSSYERFAYWGQGTLVTVSA VL: DIQMIQSPASLSVSVGETVTITCRASENIYSNLAWYQQKQGKSPQLLVYVATKLADGVPSRFSGSGSGTQYSLKINSLQSEDFGSYYCQHFWGTPPWTFGGGTKLEIK",
    "Quantitative readout": 0.24
  },
  {
    "Binder": "δ3-42 (antibody, V domains shown) VH: DVQLQESGPDLVKPSQSLSLTCTVTGYSITSGYNWHWIRQFPGNKLEWMGYIHYSGNTDYNPSLRSRISITRDTSKNQFFLHLNSVPTEDTATYYCARSGITTDWYFDVWGAGTTVTVSS VL: QIVLSQSPAILSASPGEKVTMTCRASSSVNYMHWYQQKPGSSPKPWIYATSNLASGVPARFSGSGSGTSYSLTISKVEAEDAATYYCQQWSSHQPTFGAGTKLELK",
    "Quantitative readout": 0.35
  }
]

Tell me the measured paired-competition value (Octet signal of the second antibody per paragraph 256) of δ3-58 (antibody, V domains shown) VH: EVKLVESGGGLVQPGGSLKLSCAASGFTFSSYAMSWVRQTPEKRLEWVAYIRDGGGGTYYPDTVEGRFTISRDNAKNTLYLQMSSLKSEDTAMYYCARHPPMNDWFLYWGQGTLVTVSA VL: DIQMTQSPASLSVSVGETVTITCRASENIYSHLAWYQQKQGKSPQLLVYAATNLADGVPSRFSGSGSGTQYSLKINSLQSEDFGSYYCQHFWGTPYTFGGGTKLEIKR , please. 0.37
